TESTED_ON: Aβ1-42 (Homo sapiens, UniProt P05067)
Construct: Aβ1-42 was firstly dissolved in HFIP
Sequence (P05067 672-713 limits assumed): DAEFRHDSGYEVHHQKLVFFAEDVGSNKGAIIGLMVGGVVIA
MEASUREMENT_NOTES: Inhibition of Aβ1-42 aggregation (fibril formation), ThT fluorescence
Assay type: biochemical
MEASURED_QUANTITY: pIC50
// scale note: pIC50 = -log10(conc_M); give the bare number

Form field: reported pIC50 of COc1ccc(-c2oc3cc(OC)cc(OC)c3c(=O)c2OC)cc1
3.87

* * *

Below, each entry is listed with its recorded IC50.
TESTED_ON: Aβ1-42 (Homo sapiens, UniProt P05067)
Construct: Aβ1-42 was firstly dissolved in HFIP
MEASUREMENT_NOTES: Inhibition of Aβ1-42 aggregation (fibril formation), ThT fluorescence
Format: biochemical
COND: read-out: Inhibition of Aβ formation IC50
Quick note: give the figure in µM, leave out the unit.

Please review the entries below; each comes with its answer.
COMPOUND	TESTED_ON	IC50 (µM)
COc1cc(OC)c2c(=O)c(OC)c(-c3ccccc3)oc2c1	Aβ1-42 (Homo sapiens, UniProt P05067)	87.1
COc1ccc(-c2cc(=O)c3c(OC)cc(OC)cc3o2)cc1	Aβ1-42 (Homo sapiens, UniProt P05067)	91.4
COc1cc(O)c2c(=O)c(OC)c(-c3ccccc3)oc2c1 [F4, 5-hydroxy-3,7-dimethoxyflavone]	Aβ1-42 (Homo sapiens, UniProt P05067)	97.1

# context switch: different compound, same IC50
Form field: reported IC50 of COc1cc(OC)c2c(=O)cc(-c3ccccc3)oc2c1
105
